system under test: Protein phosphatase EYA2 (Homo sapiens) (UniProt O00167)
Sequence (O00167 whole entry, looked up): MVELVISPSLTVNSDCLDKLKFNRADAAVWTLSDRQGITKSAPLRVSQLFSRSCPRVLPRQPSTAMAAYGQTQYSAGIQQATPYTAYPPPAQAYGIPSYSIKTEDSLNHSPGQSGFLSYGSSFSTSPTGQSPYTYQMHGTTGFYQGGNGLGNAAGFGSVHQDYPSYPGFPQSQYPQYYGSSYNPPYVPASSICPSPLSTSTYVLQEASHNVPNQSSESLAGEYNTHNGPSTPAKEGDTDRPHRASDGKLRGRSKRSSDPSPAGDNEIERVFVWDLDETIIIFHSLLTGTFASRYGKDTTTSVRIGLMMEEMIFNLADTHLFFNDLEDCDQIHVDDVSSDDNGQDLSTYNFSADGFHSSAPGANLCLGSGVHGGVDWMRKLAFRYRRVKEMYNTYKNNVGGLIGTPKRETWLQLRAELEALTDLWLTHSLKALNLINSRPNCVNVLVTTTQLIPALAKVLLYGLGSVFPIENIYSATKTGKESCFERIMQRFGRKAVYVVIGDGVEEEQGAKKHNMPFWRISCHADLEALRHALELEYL
experiment notes: Inhibitors of Eya2ED: Hit Confirmation in Primary Screen
condition info: Recombinant Eya2ED, OMFP fluorescence phosphatase assay; series mostly up to 76.9 µM
Records with an inconclusive call do not appear. Activity calls are given as the source filed them. Calls follow the shape of the dose curve; as a rule, active = well fitted curve in the direction sought with a large enough effect; inconclusive = small, poorly fitted or top-dose-only effect, or another doubt; inactive = no such curve, though single readings can be large or run the other way.
Outcome codes: yes = active, no = inactive

# compound, category
records = [
    ("CSCC[C@H](NC(=O)[C@@H]1Cc2ccccc2CN1)C(=O)Nc1ccc2c(c1)OCCO2", "no"),
    ("COc1ccc(/C=C(\\C#N)C(=O)OCC(=O)N2CC(C)OC(C)C2)cc1 (stereo not drawn)", "no"),
    ("CCOC(=O)C1CCCN(Cc2cc(Br)c(OC)cc2OC)C1 (stereo not drawn)", "no"),
    ("CS(=O)(=O)c1ccc2nc(NC(=O)c3cccc([N+](=O)[O-])c3)sc2c1", "no"),
    ("Cn1c(N)c(C(=O)CSc2nnc(C3CC3)n2-c2ccccc2)c(=O)[nH]c1=O", "no"),
    ("CC(C)(C)OC(=O)NCCCCCc1nnc(SCc2ccccc2F)o1", "no"),
    ("COc1ccc2c(c1)[C@H]1[C@H](CO2)[C@H](c2ccccc2)[C@]2(C)C(=O)Nc3ccc(F)cc3C(=O)N12", "no"),
    ("Cc1ccc(S(=O)(=O)NNC(=S)NCCc2ccccc2)cc1", "no"),
    ("S=C1NC[C@H](CC2CCCCC2)N1CC1CCCCC1", "no"),
    ("CN1CC[n+]2cnc3ccccc3c21", "no"),
    ("COC(=O)c1ccc(Cn2cc([N+](=O)[O-])cn2)cc1", "no"),
    ("CC(C)CN1C(=O)c2ccc(NC(=O)c3ccccc3F)cc2C1=O", "no"),
    ("NC(=O)Nc1ccc(C(=O)OCC(=O)NC2CCCCC2)cc1", "no"),
    ("CCOc1ccc(S(=O)(=O)NC(C)C(=O)NCc2ccncc2)cc1 (stereo not drawn)", "no"),
    ("NC(=O)C1CCN(CC(=O)Nc2ccc3c(c2)OCCO3)CC1", "no"),
    ("O=C(C1CCC(=O)N(C2CCCC2)C1)N1CCC(Oc2cccc(F)c2)CC1 (stereo not drawn)", "no"),
    ("O=C(N/N=C\\c1ccc(Sc2ccccn2)o1)c1cccc(Br)c1", "yes"),
    ("CC(NC(=S)NNS(=O)(=O)c1ccc(C(C)(C)C)cc1)c1ccccc1 (stereo not drawn)", "no"),
    ("CCN(C(=O)COC(=O)c1cc(OC)c(OC)cc1[N+](=O)[O-])C1CCS(=O)(=O)C1 (stereo not drawn)", "no"),
    ("COc1ccc2oc(C(=O)OCC(=O)N3CCCCC3C)c(C)c2c1 (stereo not drawn)", "no"),
    ("CCCOc1ccc(C(=O)OCC(=O)c2c(N)n(C)c(=O)n(C)c2=O)cc1OC", "no"),
    ("CCOc1ccc(S(=O)(=O)N2CCN(C(=O)c3sccc3C)CC2)cc1", "no"),
    ("CC(C)Cc1nnc(NC(=O)c2cc3c(s2)CCC3)s1", "no"),
    ("COc1ccc(CCc2nc(C)ccc2O)cc1", "no"),
    ("Cc1ccc(NC(=O)CC2C(=O)NC3CCCCC3N2C(=O)c2ccc(F)cc2)cc1C (stereo not drawn)", "no"),
    ("O=C(O)C1CC(=O)N(c2ccc(Br)cc2)C1 (stereo not drawn)", "no"),
    ("COc1cccc(-c2cc(C(F)(F)F)nc(N3CCN(c4ccccc4)CC3)n2)c1", "no"),
    ("COc1ccc(NC(=O)CSc2nc3[nH]c(=O)[nH]c(=O)c3s2)cc1OC", "no"),
    ("C#CCOCCOCCOCCNc1nc(N2CCN(C(=O)CCCCCCCCCCNC(=O)[C@H](CCCCN)n3cc(C)nn3)CC2)nc(N2CCN(C(=O)CCCCCCCCCCNC(=O)[C@H](CCCN=C(N)N)n3cc(C[C@@H](C)CC)nn3)CC2)n1", "yes"),
    ("CC1(c2ccccc2Cl)NC(=O)N(CC(=O)N2CCc3ccccc3C2)C1=O (stereo not drawn)", "no"),
    ("COc1c(O)ccc(/C=N\\NC(=O)c2ccc3c(c2)OCO3)c1[N+](=O)[O-]", "no"),
    ("COc1ccccc1OCCCCOc1ccccc1F", "no"),
    ("CC(C1CC1)N(C(=O)c1ccccc1O)c1ccccc1 (stereo not drawn)", "no"),
]

Reference source: PubChem BioAssay AID504895
